Assign koff to each entry below.
molecular target: canine IL-4RA (construct not given) (canine); test: SPR, combinatorial Fab-SASA clone
Give the quantity in s⁻¹, number only.

q: Read off the recorded koff for AHF21194 (Fab, V domains shown, not shown: small tags and cut ends) VH: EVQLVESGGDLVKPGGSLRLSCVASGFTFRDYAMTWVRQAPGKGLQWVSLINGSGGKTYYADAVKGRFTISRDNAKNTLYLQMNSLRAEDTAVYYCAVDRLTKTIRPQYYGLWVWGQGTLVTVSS VL: DIVMTQTPLSLSVSPGETASISCRSSQSLLYSIGYNYLDWYLQKPGQSPQGLIYLGSKRASGVPDRFSGSGSGTDFTLRISRVEANDTGVYYCMQGLQSPLSFGQGTKLEIKR
a: 0.000133

q: Read off the recorded koff for AHF21191 (Fab, V domains shown, not shown: small tags and cut ends) VH: EVQLVESGGDLVKPGGSLRLSCVASGFTFRDYAMTWVRQAPGKGLQWVSLINGSGGKTYYADAVKGRFTISRDNAKNTLYLQMNSLRAEDTAVYYCAVDRLTKTIRPQYYGLWHWGQGTLVTVSS VL: DIVMTQTPLSLSVSPGETASISCRSSQSLTYSIGYNYLDWYLQKPGQSPQGLIYLGSKRASGVPDRFSGSGSGTDFTLRISRVEANDTGVYYCMQGLQSPLGFGQGTKLEIKR
a: 9.48e-05

q: Read off the recorded koff for AHF21180 (Fab, V domains shown, not shown: small tags and cut ends) VH: EVQLVESGGDLVKPGGSLRLSCVASGFTFRDYAMTWVRQAPGKGLQWVSLINGSGGKTYYADAVKGRFTISRDNAKNTLYLQMNSLRAEDTAVYYCAVDRKTKTIRPQYYGLWHWGQGTLVTVSS VL: DIVMTQTPLSLSVSPGETASISCRSSQSLTYSIGYNYLDWYLQKPGQSPQGLIYLGSKRASGVPDRFSGSGSGTDFTLRISRVEANDTGVYYCMQPLQSPLTFGQGTKLEIKR
a: 5.68e-05

q: Read off the recorded koff for AHF21171 (Fab, V domains shown, not shown: small tags and cut ends) VH: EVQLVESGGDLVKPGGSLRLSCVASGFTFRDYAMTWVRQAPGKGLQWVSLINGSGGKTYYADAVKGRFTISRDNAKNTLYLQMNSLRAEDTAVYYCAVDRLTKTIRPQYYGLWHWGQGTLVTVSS VL: DIVMTQTPLSLSVSPGETASISCRSSQSLLYSIGYNYLDWYLQKPGQSPQGLIYLGHKRASGVPDRFSGSGSGTDFTLRISRVEANDTGVYYCMQGLQSPLSFGQGTKLEIKR
a: 0.000134

q: Read off the recorded koff for AHF21182 (Fab, V domains shown, not shown: small tags and cut ends) VH: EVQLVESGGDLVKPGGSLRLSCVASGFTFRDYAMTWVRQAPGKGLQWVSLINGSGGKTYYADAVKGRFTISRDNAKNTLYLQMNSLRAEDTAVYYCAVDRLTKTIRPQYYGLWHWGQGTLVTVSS VL: DIVMTQTPLSLSVSPGETASISCRSSQSLTYSIGYNYLDWYLQKPGQSPQGLIYLGHKRASGVPDRFSGSGSGTDFTLRISRVEANDTGVYYCMQGLQSPLLFGQGTKLEIKR
a: 0.000126

q: Read off the recorded koff for AHF21187 (Fab, V domains shown, not shown: small tags and cut ends) VH: EVQLVESGGDLVKPGGSLRLSCVASGFTFRDYAMTWVRQAPGKGLQWVSLINGSGGKTYYADAVKGRFTISRDNAKNTLYLQMNSLRAEDTAVYYCAVDRKTKTIRPQYYGLWVWGQGTLVTVSS VL: DIVMTQTPLSLSVSPGETASISCRSSQSLTYSIGYNYLDWYLQKPGQSPQGLIYLGHKRASGVPDRFSGSGSGTDFTLRISRVEANDTGVYYCMQGLQSPLGFGQGTKLEIKR
a: 0.000132

q: Read off the recorded koff for AHF21174 (Fab, V domains shown, not shown: small tags and cut ends) VH: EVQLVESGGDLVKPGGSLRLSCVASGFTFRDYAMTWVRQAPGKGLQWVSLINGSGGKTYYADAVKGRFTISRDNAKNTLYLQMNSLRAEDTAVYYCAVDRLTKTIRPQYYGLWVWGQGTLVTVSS VL: DIVMTQTPLSLSVSPGETASISCRSSQSLTYSIGYNYLDWYLQKPGQSPQGLIYLGHKRASGVPDRFSGSGSGTDFTLRISRVEANDTGVYYCMQGLQSPLSFGQGTKLEIKR
a: 9.58e-05

q: Read off the recorded koff for AHF21188 (Fab, V domains shown, not shown: small tags and cut ends) VH: EVQLVESGGDLVKPGGSLRLSCVASGFTFRDYAMTWVRQAPGKGLQWVSLISGSGGKTYYADAVKGRFTISRDNAKNTLYLQMNSLRAEDTAVYYCAVDRLTKTIRPQYYGLWHWGQGTLVTVSS VL: DIVMTQTPLSLSVSPGETASISCRSSQSLTYSIGYNYLDWYLQKPGQSPQGLIYLGSKRASGVPDRFSGSGSGTDFTLRISRVEANDTGVYYCMQGLQSPLGFGQGTKLEIKR
a: 0.000278

q: Read off the recorded koff for AHF21176 (Fab, V domains shown, not shown: small tags and cut ends) VH: EVQLVESGGDLVKPGGSLRLSCVASGFTFRDYAMTWVRQAPGKGLQWVSLINGSGGKTYYADAVKGRFTISRDNAKNTLYLQMNSLRAEDTAVYYCAVDRKTKTIRPQYYGLWHWGQGTLVTVSS VL: DIVMTQTPLSLSVSPGETASISCRSSQSLTYSIGYNYLDWYLQKPGQSPQGLIYLGHKRASGVPDRFSGSGSGTDFTLRISRVEANDTGVYYCMQGLQSPLGFGQGTKLEIKR
a: 9.11e-05

q: Read off the recorded koff for AHF21201 (Fab, V domains shown, not shown: small tags and cut ends) VH: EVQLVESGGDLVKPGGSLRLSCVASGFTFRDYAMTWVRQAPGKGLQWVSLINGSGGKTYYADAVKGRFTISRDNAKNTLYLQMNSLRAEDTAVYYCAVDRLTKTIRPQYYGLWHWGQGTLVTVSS VL: DIVMTQTPLSLSVSPGETASISCRSSQSLLYSIGYNYLDWYLQKPGQSPQGLIYLGHKRASGVPDRFSGSGSGTDFTLRISRVEANDTGVYYCMQGLQSPLGFGQGTKLEIKR
a: 0.000151

q: Read off the recorded koff for AHF21184 (Fab, V domains shown, not shown: small tags and cut ends) VH: EVQLVESGGDLVKPGGSLRLSCVASGFTFRDYAMTWVRQAPGKGLQWVSLISGSGGKTYYADAVKGRFTISRDNAKNTLYLQMNSLRAEDTAVYYCAVDRLTKTIRPQYYGLWHWGQGTLVTVSS VL: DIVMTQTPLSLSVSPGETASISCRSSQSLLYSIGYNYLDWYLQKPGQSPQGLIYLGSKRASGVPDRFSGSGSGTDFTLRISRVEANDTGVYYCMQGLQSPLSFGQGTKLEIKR
a: 0.000543
